Cited source: ChEMBL document CHEMBL3826949

target: UniProt:O42713; assay: Inhibition of mushroom tyrosinase using L-tyrosine as substrate assessed as monophenolase activity by spectrophotometric analysis
Assignment: determine reported pIC50 for the given compounds.
Answers are plain numbers, as −log10 of the molar value.

Please report pIC50 for every entry that follows.
1. Cc1ccc(O)cc1O
2. Oc1cccc(O)c1 [RESORCINOL]
3. Cc1c(O)cccc1O

1. 5.03
2. 2.95
3. 2.85

Need pIC50, item CCc1ccc(O)cc1O
5.72

----------
molecular target: Tyrosinase (Agaricus bisporus); assay: Inhibition of mushroom tyrosinase using L-dopa as substrate assessed as diphenolase activity by spectrophotometric analysis
Sequence (O42713 whole entry): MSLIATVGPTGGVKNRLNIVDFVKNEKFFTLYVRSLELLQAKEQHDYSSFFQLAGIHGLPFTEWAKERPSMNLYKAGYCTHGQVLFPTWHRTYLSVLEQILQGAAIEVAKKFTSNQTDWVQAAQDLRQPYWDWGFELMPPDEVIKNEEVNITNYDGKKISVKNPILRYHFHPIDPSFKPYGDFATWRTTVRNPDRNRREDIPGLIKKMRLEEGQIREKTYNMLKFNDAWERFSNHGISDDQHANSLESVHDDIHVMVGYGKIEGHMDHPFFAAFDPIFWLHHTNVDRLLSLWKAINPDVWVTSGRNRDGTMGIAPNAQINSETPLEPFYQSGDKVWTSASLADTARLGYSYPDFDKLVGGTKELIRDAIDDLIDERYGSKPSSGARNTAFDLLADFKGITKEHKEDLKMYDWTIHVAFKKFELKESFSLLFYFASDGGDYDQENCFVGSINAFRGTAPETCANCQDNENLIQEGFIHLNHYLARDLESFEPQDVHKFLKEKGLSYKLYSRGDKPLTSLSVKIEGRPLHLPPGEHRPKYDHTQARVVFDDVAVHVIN
Assignment: determine reported IC50 for the given molecules.
Numbers only, in µM.

Please review the following examples before continuing.
Cc1c(O)cccc1O :: 717
CCc1ccc(O)cc1O :: 1.1

Please report IC50 for every entry that follows.
1. Oc1cccc(O)c1
2. Cc1ccc(O)cc1O

652
3.3
